measuredOn: T1, cynomolgus monkey TF ECD-His6 (cynomolgus monkey (Macaca fascicularis))
T1 construct: Expi293-derived; also called TF-His; cTF
T1 chain: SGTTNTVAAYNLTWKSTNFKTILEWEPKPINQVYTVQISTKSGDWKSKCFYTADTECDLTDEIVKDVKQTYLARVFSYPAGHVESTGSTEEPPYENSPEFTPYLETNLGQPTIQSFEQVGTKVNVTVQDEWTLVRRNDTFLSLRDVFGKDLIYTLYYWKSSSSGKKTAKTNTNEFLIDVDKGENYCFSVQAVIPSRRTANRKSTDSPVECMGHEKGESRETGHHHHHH
assayProcedure: SPR (Biacore), TF-His over coupled antibody
pKd: −log10 of the molar value.
# if value of pKd reaches 9, tag Yes; if it stays below, tag No

binder: 39A (antibody, human IgG1, V domains shown, Human IgG1; also called antibody designated 39A) VH: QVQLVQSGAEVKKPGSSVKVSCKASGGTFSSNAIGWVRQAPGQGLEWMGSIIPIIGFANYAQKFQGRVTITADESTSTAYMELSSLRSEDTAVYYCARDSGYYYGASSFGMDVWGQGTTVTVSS VL: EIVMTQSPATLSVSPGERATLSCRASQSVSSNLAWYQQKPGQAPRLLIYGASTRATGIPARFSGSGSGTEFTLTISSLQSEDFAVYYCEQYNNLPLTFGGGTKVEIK
assignedLabel: Yes
//
binder: 25A (antibody, human IgG1, V domains shown, Human IgG1; also called antibody designated 25A) VH: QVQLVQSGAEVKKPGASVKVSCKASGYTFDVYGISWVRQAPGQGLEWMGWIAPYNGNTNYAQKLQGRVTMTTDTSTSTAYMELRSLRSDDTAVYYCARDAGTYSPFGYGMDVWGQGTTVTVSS VL: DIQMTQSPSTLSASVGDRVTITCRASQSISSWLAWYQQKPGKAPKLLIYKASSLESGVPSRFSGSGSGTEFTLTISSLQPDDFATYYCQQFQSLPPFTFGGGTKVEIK
assignedLabel: No
//
binder: 25A3 (antibody, human IgG1, V domains shown, Human IgG1; also called antibody designated 25A3) VH: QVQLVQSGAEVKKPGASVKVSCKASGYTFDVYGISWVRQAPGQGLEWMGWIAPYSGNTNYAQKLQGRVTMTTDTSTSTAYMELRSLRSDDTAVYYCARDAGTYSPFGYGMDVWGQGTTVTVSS VL: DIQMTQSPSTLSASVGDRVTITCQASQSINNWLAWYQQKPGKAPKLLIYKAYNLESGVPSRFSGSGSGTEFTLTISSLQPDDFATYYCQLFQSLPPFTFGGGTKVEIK
assignedLabel: Yes

Decide: is the reported value of pKd for 43D (antibody, human IgG1, V domains shown, Human IgG1; also called antibody designated 43D) VH: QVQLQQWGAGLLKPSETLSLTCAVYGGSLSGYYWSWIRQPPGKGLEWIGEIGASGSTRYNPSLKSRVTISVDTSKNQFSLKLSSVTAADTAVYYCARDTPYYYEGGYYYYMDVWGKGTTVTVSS VL: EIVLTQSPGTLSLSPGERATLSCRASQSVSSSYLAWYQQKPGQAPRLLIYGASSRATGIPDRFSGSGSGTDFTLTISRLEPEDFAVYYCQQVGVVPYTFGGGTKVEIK equal to or greater than 9? No
